Tested on: Vero
Test method notes: MTT cytotoxicity assay, Vero cells
Format: cell-based
Assay conditions: 24-hour incubation
From the text: SDS was used as a positive cytotoxic control.
Property measured: CC50

INPUT: Look up CC50 for this compound: COC1C(OP(=O)(OCC2OC(n3cnc4c(N)ncnc43)CC2O)SCOC(=O)OC(C)C)C(CO)OC1n1ccc(=O)[nH]c1=O (mixture of isomers)
OUTPUT: > 1000 µM

====

Tested on: HFF (human foreskin fibroblasts)
Test method notes: MTT cytotoxicity assay, HFF cells
Type: cell-based
Assay conditions: 24-hour incubation
Property measured: CC50

INPUT: Look up CC50 for this compound: COC1C(OP(=O)(OCC2OC(n3cnc4c(N)ncnc43)CC2O)SCOC(=O)OC(C)C)C(CO)OC1n1ccc(=O)[nH]c1=O (mixture of isomers)
OUTPUT: > 1 mM

====

Tested on: MDBK, Vero, and HFF cell lines
Test method notes: in vitro
Assay conditions: cell line not specified (table footnote)
Property measured: CC50

INPUT: Look up CC50 for this molecule: COC1C(OP(=O)(S)OCC2OC(n3cnc4c(N)ncnc43)CC2O)C(CO)OC1n1ccc(=O)[nH]c1=O (mixture of isomers)
OUTPUT: > 1000 µM

Taken from patent US10391166B2.
